# TEST PROTOCOL: Bronchodilatory activity in guinea pig trachea assessed as inhibition of contraction
# Format: functional, tissue-based
MEASUREMENT TYPE: EC50 (µM)
Give just the number in µM; leave the unit off.

Query :: I am curious: what EC50 value has been reported for `COc1cc2nc3n(c(=O)c2cc1OC)CCCCC3` ?
Result :: 73

Measured values drawn from ChEMBL document CHEMBL3120112 for this set.
